Listing of entries alongside the reported protein stability index.
Assay: protein stability index of a GFP-peptide fusion (yeast GPS) (PSI 1-4); higher = more stable; sorted into four equal gates, so the index is relative within each strain
Conditions: san1∆
Answer with a bare number; do not write a unit.

| recordSequence | observedProperty | endpointValue |
| --- | --- | --- |
| QPIVTGTSVISMKYDNG [PRE4] | protein stability index | 1.93 |
| CSNESFASIPVSNSISR [SNU114] | protein stability index | 2.46 |
| KYNVNISALTQTEIKDI [PRP8] | protein stability index | 2.18 |
| YASKAVPHYNRLDSYKV [RPL25] | protein stability index | 2.34 |

Entry KFGACVAQGIMNAGGRN [RPN2] has what protein stability index?
2.52

---

Assay: protein stability index of a GFP-peptide fusion (yeast GPS) (PSI 1-4); higher = more stable; sorted into four equal gates, so the index is relative within each strain
Conditions: doa10∆
Label rule, in plain words: protein stability index of 3 and up is 1, under 3 is -1.

| recordSequence | cat |
| --- | --- |
| YQSRGIDAMKAVAEAYN [RPN6] | -1 |
| MAQRVTFRRRNPYNTRS [RPL34A] | -1 |
| CGGINDSIPYPQIVKLF [ECM29] | -1 |

Please tell me: is the sequence KSGKFCSHCGCVYVPNF [SNM1] at or over 3 in terms of protein stability index?
-1

Let us now turn to QQQQIQVPLQQTQAIAQ [YGR119C/NUP57]
-1

Let us now turn to DQNPIQVVVDAITNTGP [RPS5]
-1

Let us now turn to GKQIKSTIYNWGDNKLA [YML103C/NUP188]
-1

Let us now turn to TQEFSKNYTTETDNEMN [SIR3]
1

---

Assay: protein stability index of a GFP-peptide fusion (yeast GPS) (PSI 1-4); higher = more stable; sorted into four equal gates, so the index is relative within each strain
Settings: doa10∆
Output schema: class label derived from protein stability index. Mapping: low = under 2, intermediate = from 2 up to 3, high = 3 and over

Example results:
| recordSequence | cat |
| --- | --- |
| SESGSKLNVDQFISSRQ [POP1] | high |
| SEILIISSLMFDEEFDP [IRR1] | intermediate |
| PAVKQWDLLPEPIRFLP [SWI1] | intermediate |
| LIESGIGTHHAGLTRSD [BRR2] | high |
| TKAIQGCSKICDLSSKF [YCS4] | high |
| QNTSNMNAGGLFGAKPQ [YGR119C/NUP57] | intermediate |

Exam item: assign ECSKDMKEDGLSFVDIV [SIR4] to the correct category.
intermediate

Let us now turn to KSMKYVKKILPLYARYI [ECM29]
low

Let us now turn to DGAGGDNEVQRTMLELI [RPT1]
high

Let us now turn to PNETSEIAQANSRNAIR [RPL19A]
intermediate

Let us now turn to LPRCSKEEFRLMISPKD [RRI2]
low

Let us now turn to ATLKEIKSIIEQRKQKL [SMC3]
intermediate

---

Experiment: protein stability index of a GFP-peptide fusion (yeast GPS) (PSI 1-4); higher = more stable; sorted into four equal gates, so the index is relative within each strain
Settings: san1∆
Label rule, in plain words: protein stability index of 2 and up is label 1, under 2 is label 0.

| recordSequence | cat |
| --- | --- |
| ENCLNNDPEILKKIASI [SWI1] | label 1 |

Please tell me: is the sequence DKQARKQRTKKEDKSEA [SNF2] at or over 2 in terms of protein stability index?
label 1

Let us now turn to NQNICTSVTRRSPVFAL [GRR1]
label 0

Let us now turn to VNEDPIFHPMIHYSWSF [YML103C/NUP188]
label 1

Let us now turn to QLKNGLLEKYNTNELKE [MTR3]
label 1

Let us now turn to LSRPSLPKIKTVRKSIA [RPL35A]
label 1

Let us now turn to TTDMISVLYQLSTSAFM [YML031W/NDC1]
label 0

Let us now turn to DDPLENMFGDYSNEPFN [SNF6]
label 1

Let us now turn to DLCSSVLSQFERSYPSE [ROX3]
label 1

---

Assay: protein stability index of a GFP-peptide fusion (yeast GPS) (PSI 1-4); higher = more stable; sorted into four equal gates, so the index is relative within each strain
Conditions: pdr5∆
observedProperty: protein stability index
Answer with a bare number; do not write a unit.

Worked examples follow.
| recordSequence | protein stability index |
| --- | --- |
| LRRASATVPSAPYRKQI [YAR002W/NUP60] | 2.93 |
| RDKAGRLAEVNLKDLNN [RPO21] | 2.75 |

Switching to the query record.
Entry EVTEGQAEATEWAEENA [RPS0B] has what protein stability index?
3.22

---

Listing of entries alongside the reported protein stability index.
Experiment: protein stability index of a GFP-peptide fusion (yeast GPS) (PSI 1-4); higher = more stable; sorted into four equal gates, so the index is relative within each strain
Conditions: pdr5∆
Answer with a bare number; do not write a unit.

Worked examples follow.
| recordSequence | observedProperty | endpointValue |
| --- | --- | --- |
| TSDNLLTITKAAGANVD [RPP1B] | protein stability index | 2.13 |
| LIIIAANTPVLRKSELE [RPL30] | protein stability index | 2.68 |
| GSEVRLRDDTLPKAWIS [COR1] | protein stability index | 2.75 |
| SVRIDGRKVLQKVQGES [SIR4] | protein stability index | 3.11 |
| WKIPQNDIPQTESPLKT [SSN2] | protein stability index | 2.23 |
| SRMRLIRQDVNLGRAVF [PRP8] | protein stability index | 2.31 |

Entry IHVLEQDGGIMGSLING [SKI6] has what protein stability index?
3.1

Let us now turn to IDNSPQAISYLHKLQRM [GRR1]
2.48

Let us now turn to NLPILKNHFRKHWQERV [RPL13A]
2.83

---

Test: protein stability index of a GFP-peptide fusion (yeast GPS) (PSI 1-4); higher = more stable; sorted into four equal gates, so the index is relative within each strain
Settings: ubr1∆
observedProperty: protein stability index
Answer with a bare number; do not write a unit.

Worked examples follow.
| recordSequence | protein stability index |
| --- | --- |
| SPPCYIIDHIPGHSLLL [SNF5] | 2.49 |
| NAKDKERLQLLEDVVGA [SMC3] | 3.21 |
| MYILGMCVSKGNASLKY [YCG1] | 2.17 |

Switching to the query record.
Entry NSSKYYINEKESSYTEV [SMC4] has what protein stability index?
1.89

---

Assay: protein stability index of a GFP-peptide fusion (yeast GPS) (PSI 1-4); higher = more stable; sorted into four equal gates, so the index is relative within each strain
Conditions: ubr1∆
Label rule, in plain words: protein stability index of 3 and up is Condition met, under 3 is Condition not met.

| recordSequence | cat |
| --- | --- |
| YLHQNWVLHRDLKPANI [SSN3] | Condition not met |
| KSKFNKSNRSYSIALSN [GAL11] | Condition not met |
| HVIQIPLNKPLLTEELA [TAF14] | Condition not met |
| IDESLFNLLILSLNKRI [YCG1] | Condition not met |
| NVNETMSRSLANGIINV [SMC3] | Condition not met |

Please tell me: is the sequence TGMEPGKTSFFQALGVP [RPP0] at or over 3 in terms of protein stability index?
Condition met

Let us now turn to NAKESNYTDLIWFPEDF [MED1]
Condition not met

Let us now turn to SGSTEKAFKICEAAVEI [SIR3]
Condition met

Let us now turn to QRKEIKDRISSCSSKEK [SMC4]
Condition not met

Let us now turn to LKKQLHVSHEAMREVND [YIL149C/MLP2]
Condition not met

Let us now turn to DLCSSVLSQFERSYPSE [ROX3]
Condition met

Let us now turn to KPGRMPFNFTVTLFQMA [CDC53]
Condition not met

Let us now turn to IIKENVKVARLAGKYIP [FAS1]
Condition not met

Let us now turn to DSYLILDTLPSEFDSRV [RPT5]
Condition met

Let us now turn to ISTLFQRDRHTLAYDRG [PRP8]
Condition not met

Let us now turn to ELDKREDMIDQVSKKLS [SMC3]
Condition not met

Let us now turn to RQMKDVNAPLPTPFKVD [RPN2]
Condition not met

---

Listing of entries alongside the reported protein stability index.
Experiment: protein stability index of a GFP-peptide fusion (yeast GPS) (PSI 1-4); higher = more stable; sorted into four equal gates, so the index is relative within each strain
Conditions: ubr1∆
Answer with a bare number; do not write a unit.

Worked examples follow.
| recordSequence | protein stability index |
| --- | --- |
| KIESEDDYILSGESVMD [SRB4] | 2.96 |
| VESQFSAGRLYACISSR [RPS8A] | 2.55 |
| KLYKKIAKFERSEEEVT [YIL149C/MLP2] | 3.3 |

Entry VHDKILEDLVFPTEIVG [RPS7A] has what protein stability index?
3.31

Let us now turn to QNGQQPPTTSNLIIFLY [YML103C/NUP188]
3.06

Let us now turn to KWDNQSASRAKNMPVIY [RGR1]
3.39

Let us now turn to VPPMKLAYSKIVNGQTF [YMR129W/POM152]
1.65

Let us now turn to EDPKRRADTMDFKTDVD [YJL039C/NUP192]
3.24

Let us now turn to LADYIVEVLLVNYNSDM [NUT1]
1.2

Let us now turn to VDQGQIYRDRSTFTKHL [ITC1]
3.15

Let us now turn to VAFVCSPISDSRDELIR [RPN10]
2.34
